Assay: gradient 5% acetonitrile 3 min, to 50% in 2 min, to 85% in 15 min, held 3 min, 100 µL/min
Conditions: column: Zorbax Extend-C18 2.1 x 50 mm; eluents: water / acetonitrile, 0.1% formic acid
Use 800 s as the dividing line for RP-LC retention time, with the line itself on the YES side and lower values as NO.

| molecule | assigned.label |
| --- | --- |
| O=S(=O)(c1ccc2nncn2c1)N(Cc1ccccc1F)c1ccc2c(c1)OCCO2 | NO |
| CCc1ccc(S(=O)(=O)c2cnc(N3CCN(c4ccccc4Cl)CC3)nc2N)cc1 | YES |
| CNC(=O)c1cn2ccnc(-c3ccc(C)cc3)c2n1 | NO |
| O=C(NCCc1c[nH]c2ccccc12)C1CCCN(c2ccc(-n3ccnc3)nn2)C1 (stereo not given) | NO |
| CCn1c(=O)sc2cc(S(=O)(=O)N3CCC(C(=O)Nc4ccc(F)cc4F)CC3)ccc21 | YES |
| CCOc1ncccc1CNC(=O)CNC(C)=O | NO |
| COc1cc(C2C(C(=O)N3CCCC3)CCC(=O)N2c2ccc3c(c2)OCO3)cc(OC)c1OC (stereo not given) | NO |
| CCc1nc(-c2csc(S(=O)(=O)N3CCCC(C(=O)Nc4cccc(F)c4)C3)c2)no1 (stereo not given) | YES |
| O=C(O)c1cnc(N2CCSCC2)nc1-c1ccccc1 | YES |
| O=C(NC1CCN(c2cc(-c3ccc(Cl)cc3)[nH]n2)C1)c1ccc2[nH]ccc2c1 (stereo not given) | NO |
| Cn1nc(C(=O)N2CCCC(C(=O)NC3CC3)C2)c2c1CCN(C(=O)c1c(F)cccc1F)C2 (stereo not given) | NO |
| CC(C)n1c(=O)sc2cc(S(=O)(=O)N3CCC(C(=O)Nc4cccc(Cl)c4)CC3)ccc21 | YES |
| COC[C@@H]1CN(Cc2ccc3[nH]ccc3c2)C[C@H]1c1nc(C)no1 | NO |
| CN(C)CCNC(=O)c1cccc2[nH]c(-c3ccncc3)nc12 | NO |
| CCOc1nc2ccccc2nc1N1CCCC(C(=O)Nc2ccc(NC(C)=O)cc2)C1 (stereo not given) | YES |
| NC(=O)c1cnc(-c2ccc(Cl)cc2)n(CC(=O)N2CCCc3ccccc32)c1=O | YES |
| O=C(NCCc1c[nH]c2ccc(Cl)cc12)c1cn2cc(Cl)ccc2n1 | YES |
| O=C(NC1CCCCC1)c1nc(Nc2ccc(F)cc2)c2ccccc2n1 | YES |
| Cc1ccc(-c2ccc(-n3nc(C)c(S(=O)(=O)N4CCN(C)CC4)c3C)nn2)cc1C | NO |
| Cc1ccc(N2C(=O)C3N=NN(Cc4nc(-c5ccccc5)no4)C3C2=O)cc1C (stereo not given) | YES |
| CC(C)NC(=O)C(=O)NCC(c1ccc2c(c1)CCCN2C)N1CCCCC1 (stereo not given) | NO |
| COc1cccc(NC(=O)Cn2c(=O)cc(-c3nc(C(C)C)no3)c3ccccc32)c1 | YES |
| Cc1cc(C)n(-c2ccc(N3CCN(C(=O)c4ccc(S(N)(=O)=O)cc4)CC3)nn2)n1 | NO |
| Cc1c(C(C)(C(=O)O)c2c(C)n(C)c3ccccc23)c2ccccc2n1C | NO |
| CCc1nc(N)n(CC(=O)Nc2ccc(F)cc2)c(=O)c1C | NO |
| COc1ccccc1NC(=O)N1C[C@@H]2CN(S(=O)(=O)c3ccc(C)cc3)C[C@H](C1)O2 | YES |
| CN(C(=O)C1CCN(S(=O)(=O)c2cc(C(=O)N3CCCCCC3)cs2)CC1)C1CCCCC1 | YES |
| Cc1cccc(OCc2nc(-c3ccc4oc(C)nc4c3)no2)c1 | YES |
| CCc1ccc(NC(=O)Cn2c(=O)cc(-c3nc(C(C)C)no3)c3ccccc32)cc1 | YES |
